# System: 898857-211-R-J1-PDC complex spheroids, growth % test/control;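 further: spheroids exposed to compound for seven days before readout; 100% = DMSO vehicle control wells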
# experimental details: Anticancer human tumor 898857-211-R-J1-PDC patient-derived melanoma cell line growth inhibition [RAS]
# setup conditions: second compound 10 µM; first compound 1 µM; hits give low values
measured endpoint: viability, T/C (%)
State the answer as a number, implicitly in %.

{"columns": ["molecule", "measured endpoint", "unit name", "numeric result"],
 "data": [
  ["Nc1ccn(C2OC(CO)C(O)C2(F)F)c(=O)n1 (stereo not drawn) + C#Cc1c(F)ccc2cc(O)cc(-c3ncc4c(N5CC6CCC(C5)N6)nc(OCC56CCCN5CC(F)C6)nc4c3F)c12", "viability, T/C", "%", 5.33]
]}

Now, please, on to the next molecule.
Input C=CC(=O)N1CCN(c2nc(OCC3CCCN3C)nc3c(F)c(-c4nc(N)cc(C)c4C(F)(F)F)c(Cl)cc23)C(C)C1 (stereo not drawn) + C#Cc1c(F)ccc2cc(O)cc(-c3ncc4c(N5CC6CCC(C5)N6)nc(OCC56CCCN5CC(F)C6)nc4c3F)c12 . Output viability, T/C: 1.25
